# Measurement notes: Compound cytotoxicity, XTT-based colorimetric assay
# Format: cell-based
# Condition notes: human, uninfected MT2 cells, day 4, XTT
Endpoint label: log10(CC50 at 4 days) (log10 of the value in µM)

Structure string: COc1ccc(N(C)C(=O)[C@H](Cc2cc(F)cc(F)c2)NC(=O)CS(=O)(=O)N[C@@H](Cc2cc(F)cc(F)c2)C(=O)N(C)c2ccc(OC)cc2)cc1
log10(CC50 at 4 days): 1.05

Structure string: COc1ccc(N(C)C(=O)[C@H](Cc2ccccc2)NC(=O)Cn2c(=O)n(CC(=O)N[C@@H](Cc3ccccc3)C(=O)N(C)c3ccc(OC)cc3)c3cc(F)ccc32)cc1
log10(CC50 at 4 days): 1.06

Structure string: Cc1cc(C(=O)N[C@@H](Cc2cc(F)cc(F)c2)C(=O)N(C)c2ccc3scnc3c2)cc(C(=O)N[C@@H](Cc2cc(F)cc(F)c2)C(=O)N(C)c2ccc3scnc3c2)c1
log10(CC50 at 4 days): 0.58

Structure string: CN(C(=O)[C@H](Cc1cc(F)cc(F)c1)NC(=O)NS(=O)(=O)N[C@@H](Cc1cc(F)cc(F)c1)C(=O)N(C)c1ccc2snnc2c1)c1ccc2snnc2c1
log10(CC50 at 4 days): 1.94

Structure string: COc1ccc(N(C)C(=O)[C@H](Cc2cc(F)cc(F)c2)NC(=O)Cn2c(=O)c(=O)n(CC(=O)N[C@@H](Cc3cc(F)cc(F)c3)C(=O)N(C)c3ccc(OC)cc3)c3ccccc32)cc1
log10(CC50 at 4 days): 1.05

Structure string: COc1ccc(N(C)C(=O)[C@H](Cc2cc(F)cc(F)c2)NC(=O)Cn2c(=O)n(CC(=O)N[C@@H](Cc3cc(F)cc(F)c3)C(=O)N(C)c3ccc(OC)cc3)c3cc(Cl)ccc32)cc1
log10(CC50 at 4 days): 0.64
